Tested on: SARS-CoV-2 (USA-WA1/2020) in Calu-3 cells
Assay type: cell-based
Assay Setup: low dose (100 nM), Calu-3, 48 h
Doc: threshold 20000 AU (exclusive). Items with dsRNA signal, AU Low beneath it return 1; others return -1.

Does Cl.Cl.O=C(Cc1ccc(-c2ccc(OCCN3CCOCC3)cc2)cn1)NCc1ccccc1 [KX2-391 dihydrochloride] have dsRNA signal, AU Low strictly under 20000 AU? 1

Below 20000 AU on dsRNA signal, AU Low? Entry `FC(F)(F)c1ccc(CNc2ccc(Cc3c[nH]c4ncc(Cl)cc34)cn2)cn1` -1

I wonder whether O=C(O[C@@H]1Cc2c(O)cc(O)cc2O[C@@H]1c1cc(O)c(O)c(O)c1)c1cc(O)c(O)c(O)c1 [Epigallocatechin gallate (EGCG), Epigallocatechin gallate] has dsRNA signal, AU Low below 20000 AU. Can you tell? -1

Strictly below 20000 AU: is that where dsRNA signal, AU Low of `CC(C)[C@H](CO)Nc1nc(Nc2cccc(Cl)c2)c2ncn(C(C)C)c2n1` sits? 1

# check: dsRNA signal, AU Low < 20000 AU for `Nc1[nH]nc2nnc(-c3c(-c4ccccc4)nn4ccccc34)cc12` 1

Confirm or reject: dsRNA signal, AU Low of `NC(=O)c1cccc(-c2cc(Nc3ccc(OC(F)(F)F)cc3)ncn2)c1` lies strictly below 20000 AU -1

Bench note: check whether `O=C(NC1CCOCC1)c1ccc(-c2cc(-c3c[nH]nc3-c3ccccn3)ccn2)cc1` shows dsRNA signal, AU Low below 20000 AU 1
